Origin of values: patent US20260132123A1

molecular target: 17β-HSD10 (Homo sapiens, UniProt Q99714); construct: Histev (histidine tag with TEV site) (N, cleaved yes); made in house; host or cells: E. coli BL21-CodonPlus; test: 17β-HSD10 (ABAD) enzyme inhibition assay, NADH oxidation read at 340 nm (primary screen and dose response); format: biochemical; conditions: recombinant 17βHSD10 enzyme assay
MEASURE: Max. Effect (%)

                                   molecule                         target_under_test          measure  reported_result
0  COc1cc(OC)cc(-c2ccccc2[C@@H]2CCCN2C(=O)c2sccc2Cl)c1 (racemic)  17β-HSD10 (Homo sapiens, UniProt Q99714)  Max. Effect (%)               92
1  COc1cccc(-c2ccccc2[C@H]2CCCN2C(=O)c2scnc2C)c1  17β-HSD10 (Homo sapiens, UniProt Q99714)  Max. Effect (%)               65
2  Cc1ccccc1-c1ccccc1[C@@H]1CCCN1C(=O)c1sccc1C  17β-HSD10 (Homo sapiens, UniProt Q99714)  Max. Effect (%)              106
3  O=C(c1[nH]ncc1Cl)N1CCC[C@H]1c1ccccc1-c1cccc(O)c1 (single isomer, unassigned) [ESC1002799]  17β-HSD10 (Homo sapiens, UniProt Q99714)  Max. Effect (%)               97
4  CN(Cc1c[nH]cn1)c1cccc(N(CC2CCC2)C(=O)c2ccccc2F)c1  17β-HSD10 (Homo sapiens, UniProt Q99714)  Max. Effect (%)               96
5  CCCCN(C(=O)c1ccccc1F)c1cccc(N(C)Cc2c[nH]cn2)c1  17β-HSD10 (Homo sapiens, UniProt Q99714)  Max. Effect (%)               92

[P] COc1ccc(-c2ccc(-c3cn[nH]c3)s2)c(OC)c1OC
[Q] CC(C)CN(C(=O)c1ccccc1F)c1cccc(NCc2nc[nH]n2)c1
In terms of reported Max. Effect (%), does P or Q have the smaller number? Reply briefly: the label of your chosen item.
Q

----------
Biological target: 17β-HSD10 (Homo sapiens, UniProt Q99714)
Construct: Histev (histidine tag with TEV site) (N, cleaved yes); made in house; host or cells: E. coli BL21-CodonPlus
Sequence (Q99714 1-261): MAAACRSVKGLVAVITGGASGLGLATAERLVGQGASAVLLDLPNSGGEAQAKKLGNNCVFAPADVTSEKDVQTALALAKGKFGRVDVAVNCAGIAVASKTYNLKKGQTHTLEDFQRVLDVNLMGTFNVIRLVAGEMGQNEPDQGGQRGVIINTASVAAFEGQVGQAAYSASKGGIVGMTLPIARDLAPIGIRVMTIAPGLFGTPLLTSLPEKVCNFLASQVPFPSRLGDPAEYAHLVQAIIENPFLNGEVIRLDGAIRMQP
Assay: 17β-HSD10 (ABAD) enzyme inhibition assay, NADH oxidation read at 340 nm (primary screen and dose response)
Format: biochemical
Conditions: recombinant 17βHSD10 enzyme assay
MEASURE: Max. Effect (%)

Here is how some molecules turned out for Max. Effect (%).
                                   molecule  unit_name  reported_result
0  CC(C)CN(C(=O)c1ccccc1F)c1cccc(N(C)Cc2cncs2)c1          %               50
1  CC(C)CN(C(=O)c1ccccc1F)c1cccc(N(C)Cc2ccccn2)c1          %               80
2  CCCC(=O)N(CC(C)C)c1cccc(N(C)Cc2cnc[nH]2)c1          %               85
3  CC(C)CN(C(=O)c1ccccc1F)c1cccc(N(C)Cc2ncc[nH]2)c1          %               41
4  COc1cccc(-c2ccccc2[C@H]2CCCN2Cc2ccccc2)c1          %               −6
5  CC(C)CN(C(=O)c1ccc(C(F)(F)F)cc1F)c1cccc(N(C)Cc2c[nH]cn2)c1          %               92
6  Cc1ccsc1C(=O)N1CCC[C@@H]1c1ccccc1-c1cnn(C2CCNCC2)c1          %               52
7  COc1cccc(-c2ccccc2[C@@H]2CCCN2C(=O)c2nccn2C)c1 (racemic)          %                7

[a] CC(=O)NCCCN(C)c1cccc(N(CC(C)C)C(=O)c2ccccc2F)c1
[b] Cc1ccsc1C(=O)N1CCC[C@@H]1c1ccccc1-c1cnn(CCO)c1
Please indicate which entry, a or b , has the lower recorded Max. Effect (%) value. Response format: the label of the selected entry.
a
(a: 4%, b: 87%)

[1] Cc1ccsc1C(=O)N1CCC[C@H]1c1ccccc1-c1cnn(C2CCOCC2)c1
[2] COc1cccc(-c2ccccc2[C@@H]2CCCN2C(=O)C(C)C)c1 (racemic)
Could you check which of 1 and 2 has a smaller value for Max. Effect (%)? Return value: the label identifying the chosen record.
2
